Each entry below carries its recorded percent second protein-compound adduct.
Target: YAP1-TEAD4 (Homo sapiens) (UniProt P46937+Q15561)
Assay: Covalent inhibition of GST-tagged TEAD4 (217 to 434 residues) (unknown origin) expressed in Escherichia coli BL21 (DE3) cells/FAM-labelled YAP1 (60 to 99 residues)(unknown origin) protein-protein interaction assessed as second protein-compound adduct formation at 100 uM incubated for 24 hrs at 4 degree C followed by mass spectrometry analysis
I only need the number, in %, no unit after it.

Solved entries:
# compound, target.desc, result.number
rows = [
    ("O=C(CCl)N1CCN(S(=O)(=O)c2ccc(Cl)cc2[N+](=O)[O-])CC1", "YAP1-TEAD4 (Homo sapiens) (UniProt P46937+Q15561)", 31),
    ("Cc1ccc(S(=O)(=O)N2CCN(C(=O)CCl)C2c2ccccc2)cc1 (stereo not given)", "YAP1-TEAD4 (Homo sapiens) (UniProt P46937+Q15561)", 23),
    ("COc1ccc(N(C(=O)CCl)C(C(=O)NCCc2ccccc2)c2cccs2)cc1Cl (stereo not given)", "YAP1-TEAD4 (Homo sapiens) (UniProt P46937+Q15561)", 12),
]

percent second protein-compound adduct of `Cc1ccc(S(=O)(=O)N2CCN(C(=O)CCl)C2)cc1` , assay on YAP1-TEAD4 (Homo sapiens) (UniProt P46937+Q15561), is 25

percent second protein-compound adduct of O=C(NCCc1ccccc1)C(c1cccs1)N(C(=O)CCl)c1cccc(Cl)c1 (stereo not given) , assay on YAP1-TEAD4 (Homo sapiens) (UniProt P46937+Q15561), is 18

----------
Molecular target: YAP1-TEAD4 (Homo sapiens)
Sequence (P46937 whole entry, the tested form may be a part): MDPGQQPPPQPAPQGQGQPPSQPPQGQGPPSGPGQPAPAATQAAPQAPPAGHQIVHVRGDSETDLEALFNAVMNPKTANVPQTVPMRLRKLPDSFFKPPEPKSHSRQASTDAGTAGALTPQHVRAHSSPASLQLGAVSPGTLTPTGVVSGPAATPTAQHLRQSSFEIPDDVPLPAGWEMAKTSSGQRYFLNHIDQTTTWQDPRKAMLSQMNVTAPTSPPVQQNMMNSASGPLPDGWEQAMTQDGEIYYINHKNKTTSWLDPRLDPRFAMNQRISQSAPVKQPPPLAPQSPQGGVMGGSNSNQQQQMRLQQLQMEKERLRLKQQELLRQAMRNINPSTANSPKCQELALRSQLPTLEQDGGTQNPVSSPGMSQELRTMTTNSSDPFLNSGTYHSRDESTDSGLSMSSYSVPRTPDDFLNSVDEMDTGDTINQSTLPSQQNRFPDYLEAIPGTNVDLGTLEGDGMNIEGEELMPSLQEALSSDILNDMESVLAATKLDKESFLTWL
Sequence (Q15561 whole entry, the tested form may be a part): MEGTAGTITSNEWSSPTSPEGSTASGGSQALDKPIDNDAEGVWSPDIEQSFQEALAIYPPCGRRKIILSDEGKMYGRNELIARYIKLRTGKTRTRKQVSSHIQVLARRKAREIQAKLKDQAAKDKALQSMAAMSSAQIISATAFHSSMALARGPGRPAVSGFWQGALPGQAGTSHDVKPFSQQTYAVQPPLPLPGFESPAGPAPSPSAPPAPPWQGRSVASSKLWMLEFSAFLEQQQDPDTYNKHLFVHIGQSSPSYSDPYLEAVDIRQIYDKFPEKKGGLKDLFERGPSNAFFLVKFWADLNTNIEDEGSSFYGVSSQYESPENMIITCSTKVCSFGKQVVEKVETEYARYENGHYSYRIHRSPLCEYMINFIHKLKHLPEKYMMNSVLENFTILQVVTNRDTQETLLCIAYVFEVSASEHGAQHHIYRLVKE
Experiment: Inhibition of GST-tagged TEAD4 (217 to 434 residues) (unknown origin) expressed in Escherichia coli BL21 (DE3) cells/FAM-labelled YAP1 (60 to 99 residues)(unknown origin) protein-protein interaction preincubated for 0.5 hrs at 4 degree C with TEAD4 followed by fluorescent labelled YAP1 addition by fluorescence polarization assay
Each entry below carries its recorded IC50.
I only need the number, in µM, no unit after it.

Solved entries:
# compound, experimental.endpoint, result.number
data = [
    ("Cc1ccc(C2=NN(C(=O)CCl)C(c3ccco3)C2)cc1 (centres undefined)", "IC50", 18.1),
    ("O=C(NCCc1ccccc1)C(c1cccs1)N(C(=O)CCl)c1cccc(Cl)c1 (centres undefined)", "IC50", 9.7),
    ("COc1cccc(C2CC(Cc3cccs3)=NN2C(=O)CCl)c1OC (centres undefined)", "IC50", 23.6),
]

What the record says about `NC(=O)c1oc2ccccc2c1NC(=O)CCl` : IC50 is 40

----------
Target: YAP1-TEAD4 (Homo sapiens) (UniProt P46937+Q15561)
Assay: Inhibition of GST-tagged TEAD4 (217 to 434 residues) (unknown origin) expressed in Escherichia coli BL21 (DE3) cells/FAM-labelled YAP1 (60 to 99 residues)(unknown origin) protein-protein interaction assessed maximum inhibition preincubated for 6 hrs at 4 degree C with TEAD4 followed by fluorescent labelled YAP1 addition by fluorescence polarization assay
Each entry below carries its recorded Imax.
I only need the number, in %, no unit after it.

Solved entries:
# compound, experimental.endpoint, result.number
rows = [
    ("O=C(NCCc1ccccc1)C(c1cccs1)N(C(=O)CCl)c1cccc(Cl)c1 (stereo unspecified)", "Imax", 37),
    ("O=C(Nc1ccccc1)C1CCN(C(=O)CCl)CC1", "Imax", 33),
]

What the record says about COc1cccc(C2CC(Cc3cccs3)=NN2C(=O)CCl)c1OC (stereo unspecified) : Imax is 53

What the record says about `CCOc1ccc(S(=O)(=O)N2CCN(C(=O)CCl)CC2)cc1` : Imax is 45

What the record says about Cc1ccc(C2=NN(C(=O)CCl)C(c3ccco3)C2)cc1 (stereo unspecified) : Imax is 35

What the record says about `CCS(=O)(=O)Oc1ccc(CN(Cc2ccc(F)cc2)C(=O)CCl)cc1` : Imax is 38
